Taken from patent US9440930B2.

# SYSTEM: Human neutrophil elastase (Homo sapiens, UniProt P08246)
# Sequence (P08246 30-247 limits assumed): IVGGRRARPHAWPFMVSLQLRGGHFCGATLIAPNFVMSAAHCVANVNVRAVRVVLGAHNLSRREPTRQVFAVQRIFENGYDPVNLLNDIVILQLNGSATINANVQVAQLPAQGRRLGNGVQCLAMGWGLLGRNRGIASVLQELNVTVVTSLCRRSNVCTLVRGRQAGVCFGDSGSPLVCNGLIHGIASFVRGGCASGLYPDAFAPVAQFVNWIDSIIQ
# PROTOCOL_SUMMARY: Human Neutrophil Elastase Assay
# CONDITION: substrate MeOSuc-Ala-Ala-Pro-Val-AMC 250 μM, pH 7.5, room temperature
pIC50: −log10 of the molar value.
Overview of reported pIC50 across a group of compounds:

Consider the following illustrative entries.
| COMPOUND | SYSTEM | pIC50 |
| --- | --- | --- |
| CN1C(=O)N(c2cccc(C(F)(F)F)c2)C2=C(C(=O)CCC2)C1c1ccc(C#N)cc1[S+](C)[O-] (single isomer, unassigned) [Example 2.1B] | Human neutrophil elastase (Homo sapiens, UniProt P08246) | 6.87 |
| C[S+]([O-])c1cc(C#N)ccc1C1NC(=O)N(c2cccc(C(F)(F)F)c2)C2=C1C(=O)CCC2 (single isomer, unassigned) [Example 1.1A] | Human neutrophil elastase (Homo sapiens, UniProt P08246) | > 9.00 |

Task: Look up pIC50 with Human neutrophil elastase (Homo sapiens, UniProt P08246) for this compound: CN1C(=O)N(c2cccc(C(F)(F)F)c2)C2=C(C(=O)CCC2)[C@H]1c1ccc(C#N)cc1[S+](C)[O-] (single isomer, unassigned)
Output: > 9.00
